Molecular target: T1, Recombinant human CD40L (Human MegaCD40L; Axxora) (human, UniProt P29965 47-261, biotinylated with EZ-Link sulfo-NHS-biotin where used in the plate binding assay)
T1 construct: extracellular domain; Bought construct (Axxora ALX522110): two trimeric CD40 ligands linked via the ACRP30 collagen domain; also called biotinylated Human MegaCD40L; Mega human CD40L; not shown: FLAG tag and collagen domain of ACRP30/adiponectin that links two CD40L trimers
T1 sequence (looked up): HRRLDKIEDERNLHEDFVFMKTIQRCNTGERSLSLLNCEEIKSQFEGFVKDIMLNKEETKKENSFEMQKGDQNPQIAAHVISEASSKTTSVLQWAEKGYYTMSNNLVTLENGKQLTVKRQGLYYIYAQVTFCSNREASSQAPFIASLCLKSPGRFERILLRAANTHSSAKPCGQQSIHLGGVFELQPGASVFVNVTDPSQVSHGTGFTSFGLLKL
Assay: ProteOn XPR36 biosensor, human MegaCD40L immobilized on GLC chip, Tn3 as analyte, equilibrium analysis, 25 C
Threshold 0.002 µM: Kd strictly smaller gives 1.0, otherwise 0.0.

binder: Clone 348 - Affinity Mature variant (designed binder, Secreted His8-tagged form) AIEVKDVTDTTALITWSDDIGLYVWCELTYGIKDVPGDRTTIDLWFHQAWYSIGNLKPDTEYEVSLICRRGDMSSNPAKETFTTGGGTLGHHHHHHHH
label-value: 1.0
--
binder: Clone 347 - Affinity Mature variant (designed binder, Secreted His8-tagged form) AIEVKDVTDTTALITWSDEVGQYVGCELTYGIKDVPGDRTTIDLWYHMAWYSIGNLKPDTEYEVSLICRRGDMSSNPAKETFTTGGGTLGHHHHHHHH
label-value: 0.0
--
binder: Clone 349 - Affinity Mature variant (designed binder, Secreted His8-tagged form) AIEVKDVTDTTALITWSDEHAEFIGCELTYGIKDVPGDRTTIDLWWHSAWYSIGNLKPDTEYEVSLICRRGDMSSNPAKETFTTGGGTLGHHHHHHHH
label-value: 0.0
--
binder: Clone 309 - Parental clone isolated from naive Tn3 library (designed binder, Secreted His8-tagged form purified on Ni-NTA) AIEVKDVTDTTALITWSDEFGHYDGCELTYGIKDVPGDRTTIDLWWHSAWYSIGNLKPDTEYEVSLICYTDQEAGNPAKETFTTGGGTLGHHHHHHHH
label-value: 0.0
--
binder: Clone 345 - Affinity Mature variant (designed binder, Secreted His8-tagged form) AIEVKDVTDTTALITWSDDFAEYVGCELTYGIKDVPGDRTTIDLWWHSAWYSIGNLKPDTEYEVSLICRRGDMSSNPAKETFTTGGGTLGHHHHHHHH
label-value: 0.0
--
binder: Clone 340 - Affinity Mature variant (designed binder, Secreted His8-tagged form) AIEVKDVTDTTALITWSDDFDNYEWCELTYGIKDVPGDRTTIDLWYHMAWYSIGNLKPDTEYEVSLICRRGDMSSNPAKETFTTGGGTLGHHHHHHHH
label-value: 0.0
--
binder: Clone 342 - Affinity Mature variant (w/WT FG loop) (designed binder, Secreted His8-tagged form) AIEVKDVTDTTALITWSDDFGEYVWCELTYGIKDVPGDRTTIDLWYHHAHYSIGNLKPDTEYEVSLICRRGDMSSNPAKETFTTGGGTLGHHHHHHHH
label-value: 1.0
--
binder: Clone 346 - Affinity Mature variant (designed binder, Secreted His8-tagged form) AIEVKDVTDTTALITWSDDFEEYVVCELTYGIKDVPGDRTTIDLWWHSAWYSIGNLKPDTEYEVSLICRRGDMSSNPAKETFTTGGGTLGHHHHHHHH
label-value: 0.0
